# Measured on: KRAS G12S (Homo sapiens, UniProt P01116, G12S)
# Construct: 4 nM KRAS; aa1-188 containing the G12V, G12C, G12A or G12S amino acid substitution
# Sequence (P01116 1-188 isoform P01116-2 G12S): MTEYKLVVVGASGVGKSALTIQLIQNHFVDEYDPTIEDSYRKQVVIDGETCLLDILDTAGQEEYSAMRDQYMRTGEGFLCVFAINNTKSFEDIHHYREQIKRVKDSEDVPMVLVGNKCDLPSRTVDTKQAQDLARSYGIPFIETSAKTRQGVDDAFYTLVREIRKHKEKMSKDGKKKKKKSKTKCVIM
# Test description: HTRF nucleotide exchange assay (NEA), KRAS G12S
# Format: biochemical
pIC50: −log10 of the molar value.
Quantity name: pIC50

Some compounds with known pIC50 results, for comparison:
COCC(C)CNc1nc(OCC23CCCN2CCC3)nc2c(F)c(-c3cc(O)cc4ccccc34)ncc12 (stereo not shown) : 5.00 to 7.00
Oc1cc(-c2ncc3c(NCC4CCOCC4)nc(OCC45CCCN4CCC5)nc3c2F)c2ccccc2c1 : 5.00 to 7.00
Oc1cc(-c2ncc3c(N4CCCC5(CCOC5)C4)nc(OCC45CCCN4CCC5)nc3c2F)c2ccccc2c1 (stereo not shown) : 5.00 to 7.00
Oc1cc(-c2ncc3c(N4CCCCCC4)nc(OCC45CCCN4CCC5)nc3c2F)c2ccccc2c1 : 7.00 to 8.00

For the compound Oc1cc(-c2ncc3c(N4CCCSCC4)nc(OCC45CCCN4CCC5)nc3c2F)c2ccccc2c1 , what pIC50 is on record?
7.00 to 8.00

Any idea what pIC50 was measured for COCC1(CNc2nc(OCC34CCCN3CCC4)nc3c(F)c(-c4cc(O)cc5ccccc45)ncc23)COC1 ?
5.00 to 7.00

Consider the compound shown here: O=S1(=O)CCN(c2nc(OCC34CCCN3CCC4)nc3c(F)c(-c4cc(O)cc5ccccc45)ncc23)CCN1 What is its recorded pIC50?
5.00 to 7.00
